Listed binders paired with reported IL-2, % of BMS, at 0.003048316 ug/mL
# target_or_test_system: human LAG3 expressed on cells (human) (UniProt P18627)
# Sequence (P18627 23-525): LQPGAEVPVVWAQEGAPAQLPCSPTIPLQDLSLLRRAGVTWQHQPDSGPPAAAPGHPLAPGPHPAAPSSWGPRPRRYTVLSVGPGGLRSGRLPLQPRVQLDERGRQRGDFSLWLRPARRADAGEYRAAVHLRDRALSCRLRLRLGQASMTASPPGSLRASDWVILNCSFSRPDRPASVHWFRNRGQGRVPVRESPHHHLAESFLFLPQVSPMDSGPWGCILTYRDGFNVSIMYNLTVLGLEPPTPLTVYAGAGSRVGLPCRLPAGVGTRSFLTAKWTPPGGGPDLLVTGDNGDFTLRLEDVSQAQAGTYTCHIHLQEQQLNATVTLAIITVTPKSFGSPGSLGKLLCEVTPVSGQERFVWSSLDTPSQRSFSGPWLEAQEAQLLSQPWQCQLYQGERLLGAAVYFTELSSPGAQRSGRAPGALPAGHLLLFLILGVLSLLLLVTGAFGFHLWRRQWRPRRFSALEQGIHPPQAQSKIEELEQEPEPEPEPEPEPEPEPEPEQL
# protocol_description: cell-based or functional assay

# binder, units_of_measure, IL-2, % of BMS, at 0.003048316 ug/mL
data = [
    ("sdAb fusion 25-2015-1 (Fc fusion, not shown: a dimerising Fc or GST) QLQLVESGGGLVQAGGSLRLSCAASGSIESFSFMGWYRQAPGKQRELVAGFTGAASLSFSTYTDAVKGRFTISRDNAKNTVYLQMNSLKPEDTAVYFCNVDPWSQSWPGRYWGQGTQVTVSSGGGGSQLQLVESGGGLAQTGGSLRLSCAAAGFTFDDTATGWFRQAPGKNREGVACISSSDGRIHYIDSAKGRFTISKDNAKKTVYLQMDSLKPEDTAVYYCAAARKGSTDCQGAIWGSWGQGTQVIVSSEPKSCDKTHTCPPCPAPELLG", "%", 10.8),
    ("sdAb fusion 25-2015-2 (Fc fusion, not shown: a dimerising Fc or GST) QLQLVESGGGLVQAGGSLRLSCAASGSIESFSFMGWYRQAPGKQRELVAGFTGAASLSFSTYTDAVKGRFTISRDNAKNTVYLQMNSLKPEDTAVYFCNVDPWSQSWPGRYWGQGTQVTVSSGGGGSGGGGSQLQLVESGGGLAQTGGSLRLSCAAAGFTFDDTATGWFRQAPGKNREGVACISSSDGRIHYIDSAKGRFTISKDNAKKTVYLQMDSLKPEDTAVYYCAAARKGSTDCQGAIWGSWGQGTQVIVSSEPKSCDKTHTCPPCPAPELLG", "%", -15.6),
    ("sdAb fusion 25-27-2 (Fc fusion, not shown: a dimerising Fc or GST) QLQLVESGGGLVQAGGSLRLSCAASGSIESFSFMGWYRQAPGKQRELVAGFTGAASLSFSTYTDAVKGRFTISRDNAKNTVYLQMNSLKPEDTAVYFCNVDPWSQSWPGRYWGQGTQVTVSSGGGGSGGGGSQVQLVESGGGLVQPGGSLRLSCAASGFTLDYYAIGWFRQAPGKEREGVSCIRSSDGSTYYADSVKGRFTISSDNTKNTVYLQMNSLKPEDTAVYYCATDRYSDCRGPYENWGQGTQVTVSSEPKSCDKTHTCPPCPAPELLG", "%", 3.76),
    ("sdAb fusion 25-27-3 (Fc fusion, not shown: a dimerising Fc or GST) QLQLVESGGGLVQAGGSLRLSCAASGSIESFSFMGWYRQAPGKQRELVAGFTGAASLSFSTYTDAVKGRFTISRDNAKNTVYLQMNSLKPEDTAVYFCNVDPWSQSWPGRYWGQGTQVTVSSGGGGSGGGGSGGGGSQVQLVESGGGLVQPGGSLRLSCAASGFTLDYYAIGWFRQAPGKEREGVSCIRSSDGSTYYADSVKGRFTISSDNTKNTVYLQMNSLKPEDTAVYYCATDRYSDCRGPYENWGQGTQVTVSSEPKSCDKTHTCPPCPAPELLG", "%", -5.25),
]
